Tested System: T1, CRBN, Q96SW2;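 note: pooled lentiviral library of zinc finger degron-EGFP fusions in mCherry-positive Jurkat cells, FACS-sorted after compound exposure, with degron abundance counted by next-generation sequencing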
T1 chain: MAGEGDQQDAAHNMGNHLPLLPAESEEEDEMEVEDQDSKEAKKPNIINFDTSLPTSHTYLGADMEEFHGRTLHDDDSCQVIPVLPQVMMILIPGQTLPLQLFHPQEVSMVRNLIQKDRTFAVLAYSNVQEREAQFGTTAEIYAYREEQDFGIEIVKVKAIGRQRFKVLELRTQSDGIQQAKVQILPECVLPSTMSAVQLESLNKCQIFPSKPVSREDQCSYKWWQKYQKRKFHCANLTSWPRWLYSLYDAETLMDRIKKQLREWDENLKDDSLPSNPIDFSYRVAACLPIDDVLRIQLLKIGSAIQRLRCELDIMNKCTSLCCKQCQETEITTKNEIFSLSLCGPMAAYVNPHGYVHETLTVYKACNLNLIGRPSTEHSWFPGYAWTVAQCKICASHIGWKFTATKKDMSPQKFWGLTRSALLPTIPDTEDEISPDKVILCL
Test Summary: log2 fold change of degron read counts, EGFP-low vs EGFP+ sorted cells (limma voom), compound-induced degradation; higher = more compound-induced degradation of the degron-EGFP fusion; degrons are variants of IKZF1/3 zinc finger 2; compound dose not given here
Setup Conditions: Jurkat; 18 h; compound: compound 22 (5-morpholino-thalidomide)
Over roughly 8,300 sequences, “log2 fold change of degron read counts, EGFP-low vs EGFP+ sorted cells (limma voom), compound-induced degradation” has its median near -1.1; the highest 2% begin near 3.2. The sample as a whole holds a higher share of the highest values than the screen did.
Property Label: log2 fold change of degron read counts

INSERT INTO results (input_sequence, value_measured) VALUES
  ('FYCDICGAVFTQKGNLLRHIKL [46F_47Y_49D_50I_52G_53A_54V_55F_67L_, Q9UKT9]', 2.45),
  ('FHCPICGATFTQKGNLLRHIKL [46F_47H_49P_50I_52G_53A_54T_55F_67L_, Q9UKT9]', 1.89),
  ('FICNQCGAAFTQKGNLLRHIKL [46F_47I_49N_50Q_52G_53A_54A_55F_67L_, Q9UKT9]', -0.99),
  ('FICEVCGAAFTQKGNLLRHIKL [46F_47I_49E_50V_52G_53A_54A_55F_67L_, Q9UKT9]', 3),
  ('FKCPICGRQFTQKGNLLRHIKL [46F_47K_49P_50I_52G_53R_54Q_55F_67L_, Q9UKT9]', -2.58),
  ('LMCEICGFSCTQKGNLLRHIKL [46L_47M_49E_50I_52G_53F_54S_55C_67L_, Q9UKT9]', 2.14),
  ('FRCPICGRMFTQKGNLLRHIKL [46F_47R_49P_50I_52G_53R_54M_55F_67L_, Q9UKT9]', -1.28),
  ('FACPQCGAFFTQKGNLLRHIKL [46F_47A_49P_50Q_52G_53A_54F_55F_67L_, Q9UKT9]', -2.49),
  ('FRCEQCGAGFTQKGNLLRHIKL [46F_47R_49E_50Q_52G_53A_54G_55F_67L_, Q9UKT9]', -1.48),
  ('LTCEICGFSCTQKGNLLRHIKL [46L_47T_49E_50I_52G_53F_54S_55C_67L_, Q9UKT9]', 3.22),
  ('FKCDICGAGFTQKGNLLRHIKL [46F_47K_49D_50I_52G_53A_54G_55F_67L_, Q9UKT9]', -1.83),
  ('FFCEVCGAAFTQKGNLLRHIKL [46F_47F_49E_50V_52G_53A_54A_55F_67L_, Q9UKT9]', 3.39),
  ('FKCNICGAHFTQKGNLLRHIKL [46F_47K_49N_50I_52G_53A_54H_55F_67L_, Q9UKT9]', -2.18),
  ('FVCEVCGAAFTQKGNLLRHIKL [46F_47V_49E_50V_52G_53A_54A_55F_67L_, Q9UKT9]', 3.28),
  ('FFCEICGHTFTQKGNLLRHIKL [46F_47F_49E_50I_52G_53H_54T_55F_67L_, Q9UKT9]', -2.26);
